Hello, the source for this data is ChEMBL document CHEMBL4680185, in case you need it.

biological target: CDK1/Cyclin A (Homo sapiens); assay: Inhibition of recombinant human full length CDK1/cyclin A2 expressed in Sf9 cells incubated for 10 mins by ADP-Glo reagent assay
metric-name: IC50 (nM)
Reply with just the number (in nM).

Retrieve IC50 on CDK1/Cyclin A (Homo sapiens); query `Nc1ccccc1NC(=O)c1ccc(CNC(=O)c2n[nH]cc2NC(=O)c2c(Cl)cccc2Cl)cc1`
8.63

Retrieve IC50 on CDK1/Cyclin A (Homo sapiens); query `Nc1ccccc1NC(=O)Cc1ccc(NC(=O)c2n[nH]cc2NC(=O)c2c(Cl)cccc2Cl)cc1`
12.6

* * *

molecular target: Cyclin-dependent kinase 7/ cyclin H (Homo sapiens); assay: Inhibition of recombinant human full length CDK7/cyclin H1 expressed in Sf9 cells incubated for 10 mins by ADP-Glo reagent assay
Provide the reported IC50 of each item.

Specify reported IC50 for the compound shown: `O=C(Nc1ccc(F)cc1)c1n[nH]cc1NC(=O)c1c(F)cccc1F`
> 1000 nM

Specify reported IC50 for the compound shown: `Nc1ccccc1NC(=O)Cc1ccc(NC(=O)c2n[nH]cc2NC(=O)c2c(Cl)cccc2Cl)cc1`
> 1000 nM

Specify reported IC50 for the compound shown: `Nc1ccccc1NC(=O)c1ccc(CNC(=O)c2n[nH]cc2NC(=O)c2c(Cl)cccc2Cl)cc1`
> 1000 nM

* * *

test system: NCI-H460; experiment: Antimigratory activity against human H460 cells assessed as inhibition of cell migration at 0.5 uM measured after 48 hrs by cell scratch assay; assay type: functional, cell-based
Calls of active or inactive are those of the source. The rule behind the calls is not given here.
metric-name: inhibition

# smiles, metric-name, reported-value
records = [
    ("Nc1ccc(F)cc1NC(=O)c1ccc(CNC(=O)/C=C/c2cccnc2)cc1", "inhibition", "Active"),
    ("Nc1ccccc1NC(=O)Cc1ccc(NC(=O)c2n[nH]cc2NC(=O)c2c(Cl)cccc2Cl)cc1", "inhibition", "Active"),
    ("Nc1ccccc1NC(=O)c1ccc(CNC(=O)c2n[nH]cc2NC(=O)c2c(Cl)cccc2Cl)cc1", "inhibition", "Active"),
    ("O=C(Nc1ccc(F)cc1)c1n[nH]cc1NC(=O)c1c(F)cccc1F", "inhibition", "Active"),
]

* * *

Provide the reported IC50 of each item.
target: Histone deacetylase 1 (Homo sapiens, UniProt Q13547); assay: Inhibition of human recombinant HDAC1 preincubated for 10 mins followed by addition of substrate fluor De Lys SIRT1 deacetylase measured after 30 mins by fluorescent plate reader analysis
Reply with just the number (in µM).

Specify reported IC50 for the compound shown: `Nc1ccccc1NC(=O)Cc1ccc(NC(=O)c2n[nH]cc2NC(=O)c2c(Cl)cccc2Cl)cc1`
0.24

Specify reported IC50 for the compound shown: `Nc1ccccc1NC(=O)c1ccc(CNC(=O)c2n[nH]cc2NC(=O)c2c(Cl)cccc2Cl)cc1`
0.0064

* * *

experiment: Biovailability in ICR mouse at 20 mg/kg, ip; type: ADME, organism-based; conditions: in vivo
Provide the reported bioavailability of each item.
Reply with just the number (in %).

Specify reported bioavailability for the compound shown: `Nc1ccccc1NC(=O)Cc1ccc(NC(=O)c2n[nH]cc2NC(=O)c2c(Cl)cccc2Cl)cc1`
27.8

Specify reported bioavailability for the compound shown: `Nc1ccccc1NC(=O)c1ccc(CNC(=O)c2n[nH]cc2NC(=O)c2c(Cl)cccc2Cl)cc1`
63.6

* * *

target: Histone deacetylase 3/NCoR1 (Homo sapiens); test: Inhibition of human recombinant HDAC3/NCOR1 complex preincubated for 10 mins followed by addition of substrate fluor De Lys SIRT1 deacetylase measured after 30 mins by fluorescent plate reader analysis
metric-name: IC50 (nM)
Reply with just the number (in nM).

Specify reported IC50 for the compound shown: `Nc1ccccc1NC(=O)c1ccc(CNC(=O)c2n[nH]cc2NC(=O)c2c(Cl)cccc2Cl)cc1`
45
